tested_target: T1, recombinant human RANKL (soluble, Gly136-Asp317, N-terminal 10 His, expressed in CHO cells) (human, UniProt O14788 136-317)
T1 construct: residues between secretion signal and His tag are not described; also called hRANKL; hRNAKL
T1 sequence: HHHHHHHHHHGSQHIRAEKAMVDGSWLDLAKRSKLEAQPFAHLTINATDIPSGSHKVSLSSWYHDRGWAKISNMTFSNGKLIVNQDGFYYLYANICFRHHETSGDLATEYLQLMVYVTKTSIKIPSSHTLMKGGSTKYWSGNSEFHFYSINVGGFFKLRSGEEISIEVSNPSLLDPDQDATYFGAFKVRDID
protocol_summary: competitive ELISA, RANK-Fc coated, antibody pre-incubated with 0.25 µg/ml hRANKL; Plate#01
Collected IC50 values appear next to each entry.
Just the number please, in µg/mL, no unit attached.

Q) Given the binder G6 (antibody, human IgG2, kappa, V domains shown, 293F cells) VH: QVQLVQSGAELVQPGASVKLSCKASGYTFTTYWLQWVRQTPGQGLEWMGAIYPGPGNTKYTQKFKDRVTITADTSTSTAYMQLNSLRSEDSAVYYCARRGSRRGIAYWGQGTLVTVSA VL: NIVLTQSPASLSVSLGQRATISCRASESVDSYGRSFMHWYQQRPGQAPRLLIYLASNLESGVPARFSGSGSRTDFTLTISSVEAEDEATYYCQQDNEDPYTFGGGTKLEIKG , what is its reported IC50?
A) 0.29

Q) For the binder G5 (antibody, human IgG2, kappa, V domains shown, 293F cells) VH: QVQLVQSGAELKKPGASVKLSCKASGYTFTTYWLQWVRQAPGQGLEWMGAIYPGPGNTKYTQKFKDRFTITADKSKSTAYMQLNSLKSEDSAVYYCARRGSRRGIAYWGQGTLVTVSA VL: NIVLTQSPASLSVSLGQRATISCRASESVDSYGRSFMHWYQQKPGQAPKLLIYLASNLESGVPSRFSGSGSRTDFTLTISRVEAEDAATYYCQQDNEDPYTFGGGTKLEIKG , what IC50 is on record?
A) 0.29

Q) For the binder G2 (antibody, human IgG2, kappa, V domains shown, 293F cells) VH: QVQLVQSGAELKKPGASVKLSCKASGYTFTTYWLQWVRQAPGQGLEWMGAIYPGPGNTKYTQKFKDRFTITADKSKSTAYMQLNSLKSEDSAVYYCARRGSRRGIAYWGQGTLVTVSA VL: NIVLTQSPASLSVSLGQRATISCRASESVDSYGRSFMHWYQQRPGQAPRLLIYLASNLESGVPARFSGSGSRTDFTLTISSVEAEDEATYYCQQDNEDPYTFGGGTKLEIKG , what IC50 is on record?
A) 0.3

Q) Any idea what its IC50 is? The binder is G3 (antibody, human IgG2, kappa, V domains shown, 293F cells) VH: QVQLVQSGAELKKPGASVKLSCKASGYTFTTYWLQWVRQAPGQGLEWMGAIYPGPGNTKYTQKFKDRFTITADKSKSTAYMQLNSLKSEDSAVYYCARRGSRRGIAYWGQGTLVTVSA VL: NIVLTQSPASLSVSLGQRATISCRASESVDSYGRSFMHWYQQKPGQAPKLLIYLASNLESGVPSRFSGSGSRTDFTLTISAVEAEDAATYYCQQDNEDPYTFGGGTKLEIKG
A) 0.31

Q) IC50 lookup needed for G7 (antibody, human IgG2, kappa, V domains shown, 293F cells) VH: QVQLVQSGAELVQPGASVKLSCKASGYTFTTYWLQWVRQTPGQGLEWMGAIYPGPGNTKYTQKFKDRVTITADTSTSTAYMQLNSLRSEDSAVYYCARRGSRRGIAYWGQGTLVTVSA VL: NIVLTQSPASLSVSLGQRATISCRASESVDSYGRSFMHWYQQKPGQAPKLLIYLASNLESGVPSRFSGSGSRTDFTLTISAVEAEDAATYYCQQDNEDPYTFGGGTKLEIKG , thanks.
A) 0.29

Q) What value of measured IC50 is listed for G1 (antibody, human IgG2, kappa, V domains shown, expressed in 293F cells; also called murine antibody G1; mouse antibody (G1)) VH: QVQLQQSGAELASPGASVKLSCKASGYTFTTYWLQWVKQRPGQGLEWIGAIYPGPGNTKYTQKFKDKATLTADKSASTAYMQLNSLTSEDSAVYYCARRGSRRGIAYWGQGTLVTVSA VL: NIVLTQSPASLAVSLGQRATISCRASESVDSYGRSFMHWYQQRPGQPPTLLIYLASNLESGVPVRFSGSGSRTDFTLTIDPVEADDAATYYCQQDNEDPYTFGGGTKLEIKG ?
A) 0.18
